# System: Zymoseptoria tritici
# method.notes: Leaf blotch of wheat (SEPTTR) disease control on wheat seedlings
# Format: in vivo
# condition.label: high volume application, 100 ppm, 1 day protectant
measured.property: SEPTTR 1DP disease control rating, HV activity at 100 ppm

Sample records with SEPTTR 1DP disease control rating, HV activity at 100 ppm:
compound="CCC[C@@H](Oc1cccc(OC)c1)[C@H](C)OC(=O)[C@H](C)NC(=O)c1nccc(OC)c1O [Cmpd 1013]" result="B (≤ 80)"
compound="COc1ccnc(C(=O)NC(C)C(=O)OC(C)(C)[C@H](Oc2ccccc2)C(C)C)c1O (stereo partly shown) [Cmpd 835]" result=D
compound="COc1cccc(O[C@@H]([C@H](C)OC(=O)[C@H](C)NC(=O)c2nccc(OC)c2O)C(C)(C)C)c1 [Cmpd 1015]" result="B (≤ 80)"
compound="COc1ccnc(C(=O)N[C@@H](C)C(=O)O[C@@H](C)[C@H](Oc2ccc(C)cc2Cl)C2CC2)c1O [Cmpd 1005]" result="B (≤ 80)"
compound="COc1ccnc(C(=O)NC(C)C(=O)OC(C)C(OCC(C)C)c2ccccc2)c1O (stereo not shown) [Cmpd 820]" result="A (> 80)"

SEPTTR 1DP disease control rating, HV activity at 100 ppm for COc1ccnc(C(=O)N[C@@H](C)C(=O)O[C@@H](C)[C@H](Oc2cccc(Cl)c2)C2CCCC2)c1O [Cmpd 841] is A (> 80)

So for CCC[C@@H](Oc1ccc(C)cc1Cl)[C@H](C)OC(=O)[C@H](C)NC(=O)c1nccc(OC)c1O [Cmpd 999] , the logged SEPTTR 1DP disease control rating, HV activity at 100 ppm turned out to be B (≤ 80)
